Item-by-item account of concentration at 4 h
Experiment: Plasma metabolite profiles
Format: in vivo, male CD‐1 mice
Settings: male, CD-1, mouse, plasma, iv, 1 mg/kg
Only the number, expressed in nM, is required.

Solved cases below.
Lookup result for CO[C@@H]1[C@H](O)[C@@H](CO)O[C@H]1n1ccc(=O)[nH]c1=O ; measured concentration at 4 h: 6.3

Lookup result for O=c1cc[nH]c(=O)[nH]1 [Metabolite M3, uracil] ; measured concentration at 4 h: 63.5

Lookup result for Nc1cc[nH]c(=O)n1 [Metabolite M2, cytosine] ; measured concentration at 4 h: 22.6

Lookup result for Nc1ccn([C@@H]2O[C@H](CO)[C@@H](O)[C@H]2O)c(=O)n1 [Metabolite M5, cytidine] ; measured concentration at 4 h: 10.3

***
Lookup result for O=c1ccn([C@@H]2O[C@H](CO)[C@@H](O)[C@H]2O)c(=O)[nH]1 [Metabolite M1, uridine] ; measured concentration at 4 h: 104
